# System: MDR1
# TEST_SUMMARY: in vitro
# ASSAY_SETUP: dog, MDCK-MDR1
MEASURED_ATTRIBUTE: Papp A→B

Q: Name the reported Papp A→B value associated with the compound `Cc1nc(Nc2ncc(C(=O)Nc3c(Cl)ccnc3C)s2)cc(N2CCN(CCO)CC2)n1`
A: < 0.8 ×10⁻⁶ cm/s

Origin of the recorded values: patent US20210379067A1
